test system: NCI-H211 tumor spheroids, viability percent test/control; experiment: Anticancer human tumor NCI-H211 cell line growth inhibition; details: second compound 94.9 pM; first compound 10 µM; active compounds read low; spheroids with HUVEC and MSC;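 note: spheroids exposed to agents for seven days before readout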
Below, each entry is listed alongside its reported viability, T/C.
Report the figure in % without appending any unit label.

Tell me the measured viability, T/C of COc1ccc([C@@H](O)c2cc(-c3ncnc4cc(N5CCOCC5)ccc34)c(F)cc2Cl)nn1 + COc1cc2c(cc1O)CCNC21CSC2c3c(OC(C)=O)c(C)c4c(c3C(COC1=O)N1C(O)C3Cc5cc(C)c(OC)c(O)c5C(C21)N3C)OCO4 , please.
0.2

I am curious: what viability, T/C value has been reported for [2H]c1nc(C)nc([2H])c1-c1cc(NC[C@@H](C)c2cccc3c(C(=O)NC)ccnc23)ncn1 + COc1cc2c(cc1O)CCNC21CSC2c3c(OC(C)=O)c(C)c4c(c3C(COC1=O)N1C(O)C3Cc5cc(C)c(OC)c(O)c5C(C21)N3C)OCO4 ?
3.55

What measured viability, T/C goes with CC(C)n1c(=O)n(C)c2cnc3cc(F)c(-c4ccc(OCCCN5CCCCC5)nc4)cc3c21 + COc1cc2c(cc1O)CCNC21CSC2c3c(OC(C)=O)c(C)c4c(c3C(COC1=O)N1C(O)C3Cc5cc(C)c(OC)c(O)c5C(C21)N3C)OCO4 ?
0.42

Sample COc1cc(C)[nH]c(=O)c1CN1CCc2c(Cl)cc(C(OC)C3COC3)c(Cl)c2C1=O (stereo unspecified) + COc1cc2c(cc1O)CCNC21CSC2c3c(OC(C)=O)c(C)c4c(c3C(COC1=O)N1C(O)C3Cc5cc(C)c(OC)c(O)c5C(C21)N3C)OCO4 — what was its viability, T/C?
5.32

Param item = Cc1cc(C)c(CNC(=O)c2cc(-c3ccc(CN4CCOCC4)cc3)cc3c2cnn3C2CCCC2)c(=O)[nH]1 + COc1cc2c(cc1O)CCNC21CSC2c3c(OC(C)=O)c(C)c4c(c3C(COC1=O)N1C(O)C3Cc5cc(C)c(OC)c(O)c5C(C21)N3C)OCO4 ; retrieve measured viability, T/C.
0.74

What measured viability, T/C goes with CC1COCCN1c1cc(-c2ccnn2C)c2ccnc(-c3ccn[nH]3)c2n1 (stereo unspecified) + COc1cc2c(cc1O)CCNC21CSC2c3c(OC(C)=O)c(C)c4c(c3C(COC1=O)N1C(O)C3Cc5cc(C)c(OC)c(O)c5C(C21)N3C)OCO4 ?
0.42
